# target of assay: Disintegrin and metalloproteinase domain-containing protein 17 (Homo sapiens, UniProt P78536)
# Sequence (P78536 whole entry, the tested form may be a part): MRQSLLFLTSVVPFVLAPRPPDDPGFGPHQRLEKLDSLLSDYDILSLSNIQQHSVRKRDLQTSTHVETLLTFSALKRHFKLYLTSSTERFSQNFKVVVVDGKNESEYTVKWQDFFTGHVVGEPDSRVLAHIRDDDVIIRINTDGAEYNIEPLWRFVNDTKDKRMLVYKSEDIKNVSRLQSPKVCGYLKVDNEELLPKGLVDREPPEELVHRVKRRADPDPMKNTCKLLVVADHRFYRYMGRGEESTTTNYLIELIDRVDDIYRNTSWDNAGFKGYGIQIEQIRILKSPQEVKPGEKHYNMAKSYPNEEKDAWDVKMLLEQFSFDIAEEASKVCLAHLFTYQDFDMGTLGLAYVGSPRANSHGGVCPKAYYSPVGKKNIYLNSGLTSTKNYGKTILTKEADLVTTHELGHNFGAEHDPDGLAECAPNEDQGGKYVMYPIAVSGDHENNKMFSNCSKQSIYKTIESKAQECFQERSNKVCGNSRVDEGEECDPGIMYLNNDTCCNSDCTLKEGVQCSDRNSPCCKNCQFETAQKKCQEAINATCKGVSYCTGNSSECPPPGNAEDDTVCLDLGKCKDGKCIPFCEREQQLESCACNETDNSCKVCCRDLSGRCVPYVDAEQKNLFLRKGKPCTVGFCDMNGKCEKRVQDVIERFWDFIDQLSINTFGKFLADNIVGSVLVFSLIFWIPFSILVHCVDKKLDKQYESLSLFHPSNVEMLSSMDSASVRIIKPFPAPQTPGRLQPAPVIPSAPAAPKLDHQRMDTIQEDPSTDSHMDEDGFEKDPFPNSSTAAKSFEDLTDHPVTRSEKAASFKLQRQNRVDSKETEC
# experiment notes: Inhibition of recombinant human TACE catalytic domain using Mca-Pro-Leu-Ala-Gln-Ala-Val-Dpa-Arg-Ser-Ser-Ser-Arg-NH2 as substrate after 2 hrs by fluorescence assay
Listed here: items and their measured log10 of IC50.
Scale type: logarithmic (base 10). Underlying IC50 unit: nM.

Look over these answered cases.
{"compound": "Cc1cc(COc2ccc(S(=O)(=O)N3CCC(Cc4ccccc4)(C(=O)NO)C3)cc2)c2ccccc2n1 (centres undefined)", "readout kind": "log10 of IC50", "quantitative result": 1.62}
{"compound": "CC(=O)N1CCN(C(=O)c2ccc(OCc3cc(C)nc4c3CCCC4)cc2)CC1C(=O)NO (centres undefined)", "readout kind": "log10 of IC50", "quantitative result": 2.88}
{"compound": "Cc1cc(COc2ccc(S(=O)(=O)N3CCN(S(C)(=O)=O)C(C(=O)NO)C3)cc2)c2c(n1)CCCC2 (centres undefined)", "readout kind": "log10 of IC50", "quantitative result": 1.46}
{"compound": "Cc1cc(COc2ccc(S(=O)(=O)N3CCN(C(=O)c4ccccc4)C(C(=O)NO)C3)cc2)c2c(n1)CCCC2 (centres undefined)", "readout kind": "log10 of IC50", "quantitative result": 1.20}
{"compound": "CC(=O)N1CCN(S(=O)(=O)c2ccc(OCc3cc(C)nc4c3CCCC4)cc2)CC1(C)C(=O)NO (centres undefined)", "readout kind": "log10 of IC50", "quantitative result": 1.48}
{"compound": "Cc1cc(COc2ccc(S(=O)(=O)N3CCCC(C(=O)NO)C3)cc2)c2ccccc2n1 (centres undefined)", "readout kind": "log10 of IC50", "quantitative result": 1.78}

Read the entry Cc1cc(COc2ccc(S(=O)(=O)N3Cc4ccccc4C(C(=O)NO)C3)cc2)c2ccccc2n1 (centres undefined) and write its reported log10 of IC50.
1.92

Retrieve log10 of IC50 measured for CC#CCOc1ccc(S(=O)(=O)N2CCN(C(C)=O)C(C(=O)NO)C2)cc1 (centres undefined) and print it.
3.18

Where do the numbers come from? From ChEMBL document CHEMBL4007472.
